Molecular target: T1, Human CD3eg linker (human)
T1 construct: Single-chain construct; also called recombinant human CD3
T1 chain: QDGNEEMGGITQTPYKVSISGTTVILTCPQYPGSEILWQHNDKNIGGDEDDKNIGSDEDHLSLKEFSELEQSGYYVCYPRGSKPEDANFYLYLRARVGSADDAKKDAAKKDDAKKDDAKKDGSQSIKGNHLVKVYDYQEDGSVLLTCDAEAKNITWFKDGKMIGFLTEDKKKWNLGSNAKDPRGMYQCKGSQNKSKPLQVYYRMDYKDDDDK
Assay: SPR; fold vs parent H183/L072
Mark not satisfied for fold change of affinity values under 0.5 fold, and satisfied for everything at or above.

As a guide, the following entries are already answered.
H183/L072 VL L27bF (antibody, name in Kabat numbering, V domains shown) VH: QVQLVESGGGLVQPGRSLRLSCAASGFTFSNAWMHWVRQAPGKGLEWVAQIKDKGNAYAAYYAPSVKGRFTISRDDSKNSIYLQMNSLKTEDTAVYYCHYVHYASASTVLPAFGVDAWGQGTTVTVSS VL: DIVMTQSPLSLPVTPGEPASISCQASQEFVHMNRNTYLHWYQQKPGQAPRLLIYKVSNRFPGVPDRFSGSGSGTDFTLKISRVEAEDVGVYYCAQGTSVPFTFGQGTKLEIK    not satisfied
H183/L072 VL R29I (antibody, name in Kabat numbering, V domains shown) VH: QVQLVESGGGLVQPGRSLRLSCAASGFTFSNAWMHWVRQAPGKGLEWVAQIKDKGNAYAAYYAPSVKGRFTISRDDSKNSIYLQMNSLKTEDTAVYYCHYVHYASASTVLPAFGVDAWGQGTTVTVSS VL: DIVMTQSPLSLPVTPGEPASISCQASQELVHMNINTYLHWYQQKPGQAPRLLIYKVSNRFPGVPDRFSGSGSGTDFTLKISRVEAEDVGVYYCAQGTSVPFTFGQGTKLEIK    not satisfied
H183/L072 VL L27bH (antibody, name in Kabat numbering, V domains shown) VH: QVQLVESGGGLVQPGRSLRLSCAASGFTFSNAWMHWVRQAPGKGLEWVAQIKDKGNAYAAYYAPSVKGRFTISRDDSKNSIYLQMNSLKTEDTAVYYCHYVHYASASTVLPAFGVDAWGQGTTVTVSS VL: DIVMTQSPLSLPVTPGEPASISCQASQEHVHMNRNTYLHWYQQKPGQAPRLLIYKVSNRFPGVPDRFSGSGSGTDFTLKISRVEAEDVGVYYCAQGTSVPFTFGQGTKLEIK    not satisfied
H183/L072 VL Q27E (antibody, name in Kabat numbering, V domains shown) VH: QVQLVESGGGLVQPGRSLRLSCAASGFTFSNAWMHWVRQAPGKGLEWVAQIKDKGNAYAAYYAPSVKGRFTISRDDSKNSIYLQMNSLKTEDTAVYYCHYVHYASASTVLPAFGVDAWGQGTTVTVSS VL: DIVMTQSPLSLPVTPGEPASISCQASEELVHMNRNTYLHWYQQKPGQAPRLLIYKVSNRFPGVPDRFSGSGSGTDFTLKISRVEAEDVGVYYCAQGTSVPFTFGQGTKLEIK    satisfied
H183/L072 VL T31E (antibody, name in Kabat numbering, V domains shown) VH: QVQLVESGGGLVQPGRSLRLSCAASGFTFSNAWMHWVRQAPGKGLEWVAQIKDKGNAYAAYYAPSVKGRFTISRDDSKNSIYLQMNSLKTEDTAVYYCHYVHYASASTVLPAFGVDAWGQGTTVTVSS VL: DIVMTQSPLSLPVTPGEPASISCQASQELVHMNRNEYLHWYQQKPGQAPRLLIYKVSNRFPGVPDRFSGSGSGTDFTLKISRVEAEDVGVYYCAQGTSVPFTFGQGTKLEIK    not satisfied
H183/L072 VL A25P (antibody, name in Kabat numbering, V domains shown) VH: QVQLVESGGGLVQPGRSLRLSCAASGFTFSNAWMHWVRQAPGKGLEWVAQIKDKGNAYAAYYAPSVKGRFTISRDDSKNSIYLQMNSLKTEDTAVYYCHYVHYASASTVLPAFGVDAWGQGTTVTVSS VL: DIVMTQSPLSLPVTPGEPASISCQPSQELVHMNRNTYLHWYQQKPGQAPRLLIYKVSNRFPGVPDRFSGSGSGTDFTLKISRVEAEDVGVYYCAQGTSVPFTFGQGTKLEIK    satisfied

Could you now look at the following binder, please?
Is it the case that H183/L072 VL S93K (antibody, name in Kabat numbering, V domains shown) VH: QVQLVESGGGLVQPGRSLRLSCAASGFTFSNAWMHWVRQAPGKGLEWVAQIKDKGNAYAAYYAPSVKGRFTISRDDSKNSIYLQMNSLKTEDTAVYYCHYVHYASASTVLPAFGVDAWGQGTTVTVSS VL: DIVMTQSPLSLPVTPGEPASISCQASQELVHMNRNTYLHWYQQKPGQAPRLLIYKVSNRFPGVPDRFSGSGSGTDFTLKISRVEAEDVGVYYCAQGTKVPFTFGQGTKLEIK has fold change of affinity reaching or exceeding 0.5 fold? satisfied
